test system: S. aureus; test: MIC, Gram-positive bacteria: S. aureus (strains not named); assay type: cell-based; conditions: Staphylococcus aureus, second unnamed S. aureus column (c6), read-out: Minimal Inhibitory Concentration (MIC) S. aureus
MIC: recorded values
Hi! Could you send only the number? It should be in µg/mL, unit omitted.

Solved entries (count: 5):
Tell me the measured MIC of CC1=C\[C@@H](O)CC(=O)Cc2nc(co2)C(=O)N2CCC[C@@H]2C(=O)O[C@H]([C@H](C)COC(=O)Nc2ccnc(Br)c2)[C@H](C)/C=C/C(=O)NC\C=C\1 [SA0110206] , please. 16

Would you mind doing CC1=C\[C@@H](O)CC(=O)Cc2nc(co2)C(=O)N2CCC[C@@H]2C(=O)O[C@H]([C@H](C)COC(=O)Nc2ccc(OC(F)(F)F)cc2)[C@H](C)/C=C/C(=O)NC\C=C\1 [SA0110195] as well? 16

Now try CC1=C\[C@@H](O)CC(=O)Cc2nc(co2)C(=O)N2CCC[C@@H]2C(=O)O[C@H]([C@H](C)COC(=O)Nc2csc(C)n2)[C@H](C)/C=C/C(=O)NC\C=C\1 [SA0110214] . 64

Quick one: COc1ccc(NC(=O)OC[C@H](C)[C@H]2OC(=O)[C@H]3CCCN3C(=O)c3coc(n3)CC(=O)C[C@H](O)/C=C(C)/C=C/CNC(=O)/C=C/[C@H]2C)cc1 [SA0110040] 32

How about this compound: CC1=C\[C@@H](O)CC(=O)Cc2nc(co2)C(=O)N[C@H](Cc2c[nH]c3ccccc23)C(=O)O[C@H](C(C)C)[C@H](C)/C=C/C(=O)NC\C=C\1 [SA0202089] 32

Next:
So what's the measured MIC for this one? CC1=C\[C@@H](O)C[C@@H](F)Cc2nc(co2)C(=O)N2CCC[C@@H]2C(=O)O[C@H](C(C)C)[C@H](C)/C=C/C(=O)NC\C=C\1 [flopristin, reference compound] 0.5

Thanks! And CC1=C\[C@@H](O)CC(=O)Cc2nc(co2)C(=O)N2CCC[C@@H]2C(=O)O[C@H]([C@H](C)COC(=O)Nc2ccccc2)[C@H](C)/C=C/C(=O)NC\C=C\1 [SA0110196] ? 32

---

system: Gram-Negative Organisms; assay: microbe, parasite or virus in culture; assay type: cell-based; conditions: Klebsiella pneumoniae, ATCC43816, read-out: Minimal Inhibitory Concentration (MIC), K. pneumoniae ATCC 43816
value kind: MIC

// below: answered compounds
What MIC value was documented for this compound, CC1=C\[C@@H](O)CC(=O)Cc2nc(co2)C(=O)N2CCC[C@@H]2C(=O)O[C@H]([C@H](C)COC(=O)Nc2cnccn2)[C@H](C)/C=C/C(=O)NC\C=C\1 ? > 64 µg/mL

Also CC1=C\[C@@H](O)CC(=O)Cc2nc(co2)C(=O)N2CCC[C@@H]2C(=O)O[C@H]([C@@H](C)COC(=O)Nc2cc(C)on2)[C@H](C)/C=C/C(=O)NC\C=C\1 , if possible. > 64 µg/mL

// below: MIC requested for another compound
Would you mind telling me what MIC value was observed for CC1=C\[C@@H](O)CC(=O)Cc2nc(co2)C(=O)N[C@H](C)C(=O)O[C@H](C(C)C)[C@H](C)/C=C/C(=O)NC\C=C\1 [madumycin I, Madumycin I, reference compound] ? > 64 µg/mL

---

test system: H. influenzae ATCC 49247; experiment: MIC, Gram-negative bacteria: H. influenzae ATCC 49247; format: cell-based; settings: Haemophilus influenzae, ATCC49247, read-out: Minimal Inhibitory Concentration (MIC) H. influenzae ATCC 49247
value kind: log10 MIC (log10 of the value in µg/mL)
Quick note: numbers are log10 of MIC, with µg/mL as the unit.

Quick check: log10 MIC on H. influenzae ATCC 49247, item CC1=C\[C@@H](O)CC(=O)Cc2nc(co2)C(=O)N2CCC[C@@H]2C(=O)O[C@H]([C@H](C)COC(=O)Nc2ccnc(Br)c2)[C@H](C)/C=C/C(=O)NC\C=C\1 ? 0.60

New cases:
Form field: log10 MIC recorded for CC1=C\[C@@H](O)CC(=O)Cc2nc(co2)C(=O)N2CCC[C@@H]2C(=O)O[C@H]([C@@H](C)COC(=O)Nc2csc(C)n2)[C@H](C)/C=C/C(=O)NC\C=C\1 with H. influenzae ATCC 49247 (enter value) 1.51

Then what about the compound CC1=C\[C@@H](O)CC(=O)Cc2nc(co2)C(=O)N2CCC[C@@H]2C(=O)O[C@H]([C@@H](C)COC(=O)Nc2ccc(Br)nc2)[C@H](C)/C=C/C(=O)NC\C=C\1 ? 1.81

Now this one: COc1ccc(NC(=O)OC[C@H](C)[C@H]2OC(=O)[C@H]3CCCN3C(=O)c3coc(n3)CC(=O)C[C@H](O)/C=C(C)/C=C/CNC(=O)/C=C/[C@H]2C)cc1 1.20

How about CC1=C\[C@@H](O)C[C@@H](O)Cc2nc(cs2)C(=O)N2CCC[C@@H]2C(=O)O[C@H](C(C)C)[C@H](C)/C=C/C(=O)NC\C=C\1 ? 0.00

---

Below, each of the compounds is paired with its reported MIC value.
tested on: S. aureus; test: MIC, Gram-positive bacteria: S. aureus (strains not named); assay type: cell-based; conditions: Staphylococcus aureus, second unnamed S. aureus column (c6), read-out: Minimal Inhibitory Concentration (MIC) S. aureus

Some solved entries appear below for comparison.
Entry under review: CC1=C\[C@@H](O)CC(=O)Cc2nc(co2)C(=O)N2CCC[C@@H]2C(=O)O[C@H]([C@@H](C)CO)[C@H](C)/C=C/C(=O)NC\C=C\1 . Reported MIC? > 64 µg/mL

Could you do the same for CC(C)[C@H]1OC(=O)[C@H]2CCCN2C(=O)c2coc(n2)CC(=O)C[C@H](O)/C=C/C=C/CNC(=O)/C=C/[C@H]1C , please? > 64 µg/mL

Attention now turns to another entry.
Using the record for CC1=C\[C@@H](O)CC(=O)Cc2nc(co2)C(=O)N2CCC[C@@H]2C(=O)O[C@H]([C@@H](C)COC(=O)Nc2cnccn2)[C@H](C)/C=C/C(=O)NC\C=C\1 , report its MIC. > 64 µg/mL

---

Below are MIC values recorded for H. influenzae ATCC 49247.

Below, each entry is followed by its recorded MIC result.
Which MIC value is on record for CC1=C\[C@@H](O)CC(=O)Cc2nc(co2)C(=O)N2CCC[C@@H]2C(=O)O[C@H]([C@@H](C)CN2CCOCC2)[C@H](C)/C=C/C(=O)NC\C=C\1 ? > 64 µg/mL

Likewise for CC1=C\[C@@H](O)CC(=O)Cc2nc(co2)C(=O)N2CCC[C@@H]2C(=O)O[C@H](C(C)(C)C)[C@H](C)/C=C/C(=O)NC\C=C\1 ? > 64 µg/mL

Please give the result for CC1=C\[C@@H](O)CC(=O)Cc2nc(co2)C(=O)N2CCC[C@@H]2C(=O)O[C@H]([C@@H](C)CN2CCN(C)CC2)[C@H](C)/C=C/C(=O)NC\C=C\1 too. > 64 µg/mL

Please give the result for CC1=C\[C@@H](O)CC(=O)Cc2nc(co2)C(=O)N2CCC[C@@H]2C(=O)O[C@H]([C@H](C)COC(=O)Nc2ccc(C(F)(F)F)cc2)[C@H](C)/C=C/C(=O)NC\C=C\1 too. > 64 µg/mL

// next record CC(C)[C@H]1OC(=O)[C@H]2CCCN2C(=O)c2coc(n2)CC(=O)C[C@H](O)/C=C/C=C/CNC(=O)/C=C/[C@H]1C > 64 µg/mL

# ---- query compound ----
Entry CC1=C\[C@@H](O)CC(=O)Cc2nc(co2)C(=O)N[C@H](Cc2ccccc2)C(=O)O[C@H](C(C)C)[C@H](C)/C=C/C(=O)NC\C=C\1 : reported MIC = ? > 64 µg/mL

---

Each entry below carries its recorded MIC.
system: Gram-Negative Organisms; assay: microbe, parasite or virus in culture; assay type: cell-based; conditions: Escherichia coli, read-out: Minimal Inhibitory Concentration (MIC), E. coli ΔompC768; KanR insert

State the recorded MIC for this entry: CC1=C\[C@@H](O)CC(=O)Cc2nc(co2)C(=O)N2CCC[C@@H]2C(=O)O[C@H]([C@H](C)COC(=O)Nc2cccnc2)[C@H](C)/C=C/C(=O)NC\C=C\1 > 64 µg/mL

More entries:
# lookup: MIC of CC1=C\[C@@H](O)CC(=O)Cc2nc(co2)C(=O)N2CCC[C@@H]2C(=O)O[C@H]([C@H](C)COC(=O)Nc2ccccn2)[C@H](C)/C=C/C(=O)NC\C=C\1 > 64 µg/mL

Next: C[C@H]1COc2c(N3CCN(C)CC3)c(F)cc3c(=O)c(C(=O)O)cn1c23 0.015 µg/mL

Thanks! And CC1=C\[C@@H](O)CC(=O)Cc2nc(co2)C(=O)N2CCC[C@@H]2C(=O)O[C@H]([C@H](C)COC(=O)Nc2ccc3ccccc3n2)[C@H](C)/C=C/C(=O)NC\C=C\1 ? > 64 µg/mL
